- Run Description: NIN and BIBF 1202 plasma concentrations (C0, Cmax) in patients treated with NIN, UPLC-MS/MS
- Type: in vivo, human
- Condition Description: human; patient plasma, NIN 100 mg twice daily, n = 8, 2–3 h after morning dose; read-out: Mean Concentration Cmax
Property Label: Cmax (ng/mL)
Express it in ng/mL; write the number only.

[in] Using the record for COC(=O)c1ccc2c(c1)NC(=O)/C2=C(\Nc1ccc(N(C)C(=O)CN2CCN(C)CC2)cc1)c1ccccc1 , state its measured Cmax.
[out] 16.5

[in] Using the record for CN1CCN(CC(=O)N(C)c2ccc(N/C(=C3\C(=O)Nc4cc(C(=O)O)ccc43)c3ccccc3)cc2)CC1 , state its measured Cmax.
[out] 26.6

----------
- Run Description: NIN and BIBF 1202 plasma concentrations (C0, Cmax) in patients treated with NIN, UPLC-MS/MS
- Type: in vivo, human
- Condition Description: human; patient plasma, NIN 150 mg twice daily, n = 16, 2–3 h after morning dose; read-out: Mean Concentration Cmax
Task for the reader: assign each of the following molecules its reported Cmax.
Express it in ng/mL; write the number only.

[in] Using the record for CN1CCN(CC(=O)N(C)c2ccc(N/C(=C3\C(=O)Nc4cc(C(=O)O)ccc43)c3ccccc3)cc2)CC1 , state its measured Cmax.
[out] 57.8

[in] Using the record for COC(=O)c1ccc2c(c1)NC(=O)/C2=C(\Nc1ccc(N(C)C(=O)CN2CCN(C)CC2)cc1)c1ccccc1 , state its measured Cmax.
[out] 28.7
